target: human EHMT2 913-1193 (Homo sapiens, UniProt Q96KQ7); construct: recombinant purified human EHMT2 913-1193, Viva; purchased Viva; test: EHMT2 enzyme assay on histone peptide substrate (EHMT2 PEP); assay type: biochemical; settings: Table II; read-out: EHMT2 PEP (IC50 μM)
Parameter: IC50

# Chemical String, IC50
rows = [
    ("COc1ccc(Nc2ccc3ncc(C)n3n2)cc1OCCCN1CCCC1", "1 to 10 µM"),
    ("CCCCNc1nccc(NC2CCCCC2)n1", "> 10 µM"),
]

Hi there! I need IC50 for each item below, if you can.
1. COc1ccc(Nc2nc(C)cc(C)n2)cc1OCCCN1CCCC1
2. COc1ccc(Nc2nccc(N3CCCNC(=O)C3)n2)cc1OCCCN1CCCC1
3. COc1ccc(Nc2nccc(NCC(=O)N3CCOCC3)n2)cc1OCCCN1CCCC1

Return:
> 10 µM
1 to 10 µM
0.1 to 1 µM

* * *

molecular target: EHMT1 (Homo sapiens); assay: EHMT1 enzyme assay on peptide substrate (EHMT1 PEP); format: biochemical; conditions: EHMT1 PEP (IC50 μM), Table II
Sequence (Q9H9B1 whole entry, species assumed): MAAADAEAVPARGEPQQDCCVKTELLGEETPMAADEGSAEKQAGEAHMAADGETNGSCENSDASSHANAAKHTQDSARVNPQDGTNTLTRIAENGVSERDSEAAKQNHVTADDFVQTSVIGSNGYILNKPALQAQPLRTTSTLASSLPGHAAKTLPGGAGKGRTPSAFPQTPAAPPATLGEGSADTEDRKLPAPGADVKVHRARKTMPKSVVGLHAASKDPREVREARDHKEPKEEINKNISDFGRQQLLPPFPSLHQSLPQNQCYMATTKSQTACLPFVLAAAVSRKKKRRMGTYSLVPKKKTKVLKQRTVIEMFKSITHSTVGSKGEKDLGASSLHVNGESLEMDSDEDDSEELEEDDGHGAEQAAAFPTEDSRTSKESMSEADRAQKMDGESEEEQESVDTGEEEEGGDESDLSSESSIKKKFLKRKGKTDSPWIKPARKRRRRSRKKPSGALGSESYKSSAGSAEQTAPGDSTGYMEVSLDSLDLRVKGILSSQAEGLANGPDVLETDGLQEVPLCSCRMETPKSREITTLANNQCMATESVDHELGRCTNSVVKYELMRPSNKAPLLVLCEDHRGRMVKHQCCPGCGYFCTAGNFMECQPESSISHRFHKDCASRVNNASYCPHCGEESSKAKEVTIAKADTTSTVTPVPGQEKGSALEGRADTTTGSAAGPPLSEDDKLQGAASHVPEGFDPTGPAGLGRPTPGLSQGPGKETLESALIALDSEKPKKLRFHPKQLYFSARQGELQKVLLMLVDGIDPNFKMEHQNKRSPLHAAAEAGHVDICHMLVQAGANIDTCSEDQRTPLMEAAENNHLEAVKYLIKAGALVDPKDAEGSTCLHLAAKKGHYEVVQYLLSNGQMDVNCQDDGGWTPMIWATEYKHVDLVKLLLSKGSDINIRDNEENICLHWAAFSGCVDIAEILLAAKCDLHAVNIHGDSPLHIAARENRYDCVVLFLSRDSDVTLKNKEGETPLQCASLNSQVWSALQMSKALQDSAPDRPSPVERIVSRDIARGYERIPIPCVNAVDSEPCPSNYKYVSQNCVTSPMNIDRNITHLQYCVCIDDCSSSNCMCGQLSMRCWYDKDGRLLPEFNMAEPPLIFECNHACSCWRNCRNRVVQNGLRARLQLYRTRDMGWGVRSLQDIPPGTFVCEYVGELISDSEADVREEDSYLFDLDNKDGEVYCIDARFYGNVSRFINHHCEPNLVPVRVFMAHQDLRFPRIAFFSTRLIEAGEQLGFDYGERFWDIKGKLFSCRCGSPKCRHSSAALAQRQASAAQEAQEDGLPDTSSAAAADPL
Parameter: IC50

Enquiry: Report its IC50 with EHMT1 (Homo sapiens) as the test system: `CNc1cc(C)nc(Nc2ccc(OC)c(OCCCN3CCCC3)c2)n1`
Return: < 0.1 µM

* * *

Answer each item with its documented IC50.
Target: human EHMT2 913-1193 (Homo sapiens)
Construct: recombinant purified human EHMT2 913-1193, Viva; purchased Viva
Sequence (Q96KQ7 913-1193): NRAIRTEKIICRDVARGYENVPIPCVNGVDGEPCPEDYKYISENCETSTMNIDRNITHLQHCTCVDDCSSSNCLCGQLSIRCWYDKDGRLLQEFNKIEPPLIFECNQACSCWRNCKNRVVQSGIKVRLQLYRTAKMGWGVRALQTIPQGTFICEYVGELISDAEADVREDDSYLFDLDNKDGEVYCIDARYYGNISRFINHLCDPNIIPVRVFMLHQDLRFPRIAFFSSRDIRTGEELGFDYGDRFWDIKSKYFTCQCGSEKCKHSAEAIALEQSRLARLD
Assay: EHMT2 enzyme assay on histone peptide substrate (EHMT2 PEP)
Format: biochemical
Details: Table II; read-out: EHMT2 PEP (IC50 μM)

# Molecule, IC50
measured = [
    ("COc1ccc(Nc2nccc(NCC3CCN(C(C)=O)CC3)n2)cc1OCC1CCCN1C (stereo not drawn)", "1 to 10 µM"),
    ("COc1ccc(Nc2nccc(Nc3cccc(F)c3)n2)cc1OCCCN1CCCC1", "1 to 10 µM"),
    ("COc1ccc(Nc2nccc(NCC3(O)CCOCC3)n2)cc1OCCCN1CCCC1", "0.1 to 1 µM"),
    ("COc1ccc(Nc2ccc3ncn(C)c3c2)cc1OCCCN1CCCC1", "> 10 µM"),
    ("COc1ccc(Nc2nccc(N3CCC(OC)CC3)n2)cc1OCCCN1CCCC1", "> 10 µM"),
    ("CCCCNc1nc(C#N)cc(NCC2CCNCC2)n1", "1 to 10 µM"),
]

Return reported IC50 values for all items listed beneath this line.
1. COc1ccc(Nc2nccc(NC3CCCCC3)n2)cc1OCCCN1CCCC1
2. CC(=O)N1CCC(CNc2ccnc(Nc3cccc(NC(=O)CCN4CCCC4)c3)n2)CC1
3. COc1ccc(Nc2nccc(N)n2)cc1OCCCN1CCCC1

Return:
1: 0.1 to 1 µM; 2: > 10 µM; 3: 0.1 to 1 µM
